Cited source for all entries: ChEMBL document CHEMBL1157707

test system: PC-3; assay: cells; settings: Homo sapiens, PC-3, 72 h
Measurement Name: IC50 (µM)

Examples with their reported IC50 follow.
| Entry Smiles | IC50 [µM] |
| --- | --- |
| CC(C)n1nnc2c(N3CCOCC3)nc(-c3ccc(NC(=O)Nc4ccc(CO)cc4)cc3)nc21 | 0.055 |
| Cn1nnc2c(N3CCOCC3)nc(-c3ccc(NC(=O)Nc4cccnc4)cc3)nc21 | 0.281 |
| CCn1nnc2c(N3CCOCC3)nc(-c3ccc(NC(=O)Nc4ccc(C(=O)NCCN(C)C)cc4)cc3)nc21 | 0.052 |
| CCn1nnc2c(N3CCOCC3)nc(-c3ccc(NC(=O)Nc4ccncc4)cc3)nc21 | 0.049 |
| CCn1nnc2c(N3CCOCC3)nc(-c3ccc(NC(=O)Nc4ccc(C(N)=O)cc4)cc3)nc21 | 0.065 |
| OCc1cccc(-c2nc(N3CCOCC3)c3nnn(C4CCN(Cc5ccccc5)CC4)c3n2)c1 | 0.393 |

P: O=C(Nc1ccc(-c2nc(N3CCOCC3)c3nnn(C4CC4)c3n2)cc1)Nc1cccs1
Q: CCn1nnc2c(N3CCOCC3)nc(-c3ccc(NC(=O)Nc4ccc(C(=O)OC)cc4)cc3)nc21
R: CCn1nnc2c(N3CCOCC3)nc(-c3ccc(NC(=O)Nc4ccc(C(=O)NCCN5CCN(C)CC5)cc4)cc3)nc21
**Query** Rank ascending by IC50. // format: requested-order list of labels
**Result** R, P, Q
(R: 0.067 µM, P: 0.149 µM, Q: 0.285 µM)

---

tested on: PC-3; test: cells; conditions: Homo sapiens, PC-3, 72 h
Measurement Name: IC50 (nM)

| Entry Smiles | IC50 (nM) |
| --- | --- |
| CCCCNC(=O)c1ccc(NC(=O)Nc2ccc(-c3nc(N4CCOCC4)c4nnn(CC)c4n3)cc2)cc1 | 96 |
| O=C(Nc1ccncc1)Nc1ccc(-c2nc(N3CCOCC3)c3nnn(C4CC4)c3n2)cc1 | 70 |
| CCn1nnc2c(N3CCOCC3)nc(-c3ccc(NC(=O)Nc4ccc(C(=O)NCCCN(C)C)cc4)cc3)nc21 | 116 |

1: CC(C)n1nnc2c(N3CCOCC3)nc(-c3ccc(NC(=O)Nc4cccnc4)cc3)nc21
2: CCn1nnc2c(N3CCOCC3)nc(-c3ccc(NC(=O)Nc4ccc(C(=O)N(C)C)cc4)cc3)nc21
**Query** Hi there, can you help? I need to know whether 1 or 2 has lower measured IC50. // caller expects the label of the chosen entry
**Result** 2

---

experiment: in vitro; conditions: rat, liver microsomes
Measurement Name: half-life (min)

| Entry Smiles | Recorded Measurement |
| --- | --- |
| CCCCNC(=O)c1ccc(NC(=O)Nc2ccc(-c3nc(N4CCOCC4)c4nnn(CC)c4n3)cc2)cc1 | 21 |
| CCn1nnc2c(N3CCOCC3)nc(-c3ccc(NC(=O)Nc4ccc(C(=O)NCCN5CCN(C)CC5)cc4)cc3)nc21 | 17 |

A: O=C(Nc1ccncc1)Nc1ccc(-c2nc(N3CCOCC3)c3nnn(C4CC4)c3n2)cc1
B: Cn1nnc2c(N3CCOCC3)nc(-c3ccc(NC(=O)Nc4cccs4)cc3)nc21
C: CCn1nnc2c(N3CCOCC3)nc(-c3ccc(NC(=O)Nc4ccc(C(=O)N(C)C)cc4)cc3)nc21
**Query** Rank ascending by half-life. // format: requested-order list of labels
**Result** B, C, A

---

assay: in vitro; conditions: rat, microsomes
Measurement Name: half-life (min)

| Entry Smiles | Unit Label | Recorded Measurement |
| --- | --- | --- |
| CCn1nnc2c(N3CCOCC3)nc(-c3ccc(NC(=O)Nc4ccc(C(=O)NCCN(C)C)cc4)cc3)nc21 | min | 29 |
| CCNC(=O)c1ccc(NC(=O)Nc2ccc(-c3nc(N4CCOCC4)c4nnn(CC)c4n3)cc2)cc1 | min | 16 |

A: CCn1nnc2c(N3CCOCC3)nc(-c3ccc(NC(=O)Nc4ccc(C(N)=O)cc4)cc3)nc21
B: Cn1nnc2c(N3CCOCC3)nc(-c3ccc(NC(=O)Nc4cccnc4)cc3)nc21
**Query** Hi there, can you help? I need to know whether A or B has lower measured half-life. // caller expects the label of the chosen entry
**Result** B
(B: 12 min, A: 21 min)

---

Below is a list of entries, each paired with its recorded half-life value.
assay: Metabolic stability in human liver microsomes assessed as half life; type: ADME, Microsome

Examples with their reported half-life follow.
| Entry Smiles | half-life |
| --- | --- |
| CCn1nnc2c(N3CCOCC3)nc(-c3ccc(NC(=O)Nc4ccc(C(=O)N5CCN(C)CC5)cc4)cc3)nc21 | > 30 min |
| CCn1nnc2c(N3CCOCC3)nc(-c3ccc(NC(=O)Nc4ccc(C(=O)NCCc5ccccn5)cc4)cc3)nc21 | 16 min |
| CCNC(=O)c1ccc(NC(=O)Nc2ccc(-c3nc(N4CCOCC4)c4nnn(CC)c4n3)cc2)cc1 | > 30 min |
| CCCCNC(=O)c1ccc(NC(=O)Nc2ccc(-c3nc(N4CCOCC4)c4nnn(CC)c4n3)cc2)cc1 | > 30 min |
| CCn1nnc2c(N3CCOCC3)nc(-c3ccc(NC(=O)Nc4ccc(C(=O)N(C)C)cc4)cc3)nc21 | > 30 min |

Lab note: CCn1nnc2c(N3CCOCC3)nc(-c3ccc(NC(=O)Nc4ccc(C(=O)NCCN(C)C)cc4)cc3)nc21 gave half-life of > 30 min

Lab note: CCn1nnc2c(N3CCOCC3)nc(-c3ccc(NC(=O)Nc4ccc(C(=O)NCCCN(C)C)cc4)cc3)nc21 gave half-life of 30 min

---

target: Phosphatidylinositol 4,5-bisphosphate 3-kinase catalytic subunit alpha isoform (Homo sapiens, UniProt P42336)
Sequence (P42336 whole entry, canonical isoform): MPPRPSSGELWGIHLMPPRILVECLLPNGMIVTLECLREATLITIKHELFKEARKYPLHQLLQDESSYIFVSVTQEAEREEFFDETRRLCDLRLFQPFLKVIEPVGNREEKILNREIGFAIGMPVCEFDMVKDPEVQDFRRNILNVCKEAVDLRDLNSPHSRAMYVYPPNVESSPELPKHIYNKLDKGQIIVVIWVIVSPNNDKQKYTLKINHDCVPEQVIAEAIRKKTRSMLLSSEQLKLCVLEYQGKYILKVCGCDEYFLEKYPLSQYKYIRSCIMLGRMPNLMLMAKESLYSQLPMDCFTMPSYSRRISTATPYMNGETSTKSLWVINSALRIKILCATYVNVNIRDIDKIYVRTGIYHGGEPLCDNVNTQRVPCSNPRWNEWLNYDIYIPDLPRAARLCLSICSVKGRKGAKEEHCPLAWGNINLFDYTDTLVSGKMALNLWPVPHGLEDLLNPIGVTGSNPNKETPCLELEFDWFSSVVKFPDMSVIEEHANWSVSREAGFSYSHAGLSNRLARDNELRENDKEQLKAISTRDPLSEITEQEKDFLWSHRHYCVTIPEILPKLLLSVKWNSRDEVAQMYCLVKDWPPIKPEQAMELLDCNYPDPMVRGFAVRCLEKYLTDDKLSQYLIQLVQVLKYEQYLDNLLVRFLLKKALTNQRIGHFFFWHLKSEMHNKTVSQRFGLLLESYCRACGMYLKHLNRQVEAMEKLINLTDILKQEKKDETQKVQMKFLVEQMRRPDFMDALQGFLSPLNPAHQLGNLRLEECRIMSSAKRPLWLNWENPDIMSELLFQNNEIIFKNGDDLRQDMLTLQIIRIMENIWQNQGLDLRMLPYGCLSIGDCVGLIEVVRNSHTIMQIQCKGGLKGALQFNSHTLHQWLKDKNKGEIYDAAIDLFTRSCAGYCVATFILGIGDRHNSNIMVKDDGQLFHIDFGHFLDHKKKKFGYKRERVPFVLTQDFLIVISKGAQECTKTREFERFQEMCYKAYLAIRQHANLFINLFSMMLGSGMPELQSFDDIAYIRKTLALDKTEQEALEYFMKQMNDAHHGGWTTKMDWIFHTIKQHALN
Measurement Name: IC50 (nM)

Examples with their reported IC50 follow.
| Entry Smiles | IC50 (nM) |
| --- | --- |
| CCn1nnc2c(N3CCOCC3)nc(-c3ccc(NC(=O)Nc4ccc(C(=O)N(C)C)cc4)cc3)nc21 | 1.4 |
| O=C(Nc1ccc(-c2nc(N3CCOCC3)c3nnn(C4CC4)c3n2)cc1)Nc1cccnc1 | 10.5 |
| CCn1nnc2c(N3CCOCC3)nc(-c3ccc(NC(=O)Nc4ccc(C(=O)NCCc5ccccn5)cc4)cc3)nc21 | 6.8 |
| CCn1nnc2c(N3CCOCC3)nc(-c3ccc(NC(=O)Nc4ccc(C(N)=O)cc4)cc3)nc21 | 2.4 |

I: CC(C)n1nnc2c(N3CCOCC3)nc(-c3ccc(NC(=O)Nc4ccc(C(N)=O)cc4)cc3)nc21
II: CCn1nnc2c(N3CCOCC3)nc(-c3ccc(NC(=O)Nc4ccc(C(=O)NCCCN(C)C)cc4)cc3)nc21
**Query** Hi there, can you help? I need to know whether I or II has lower measured IC50. // caller expects the label of the chosen entry
**Result** II

---

tested on: PC-3; assay: cells; conditions: Homo sapiens, PC-3, 72 h
Measurement Name: IC50 (nM)

a: CC(C)n1nnc2c(N3CCOCC3)nc(-c3ccc(NC(=O)Nc4ccc(C(N)=O)cc4)cc3)nc21
b: CC(C)n1nnc2c(N3CCOCC3)nc(-c3ccc(NC(=O)Nc4ccc(N5CCOCC5)cc4)cc3)nc21
c: CC(C)n1nnc2c(N3CCOCC3)nc(-c3ccc(NC(=O)Nc4ccc(N(C)C)cc4)cc3)nc21
d: CCn1nnc2c(N3CCOCC3)nc(-c3ccc(NC(=O)Nc4ccnc(C)c4)cc3)nc21
e: CCNC(=O)c1ccc(NC(=O)Nc2ccc(-c3nc(N4CCOCC4)c4nnn(CC)c4n3)cc2)cc1
**Query** Sort the items above by IC50, starting with the smallest value. // format: requested-order list of labels
**Result** e, a, b, c, d

A: CCn1nnc2c(N3CCOCC3)nc(-c3ccc(NC(=O)Nc4cccs4)cc3)nc21
B: CC(C)n1nnc2c(N3CCOCC3)nc(-c3ccc(NC(=O)Nc4ccncc4)cc3)nc21
**Query** Could you please tell me which of these two has the higher IC50: A or B ? // caller expects the label of the chosen entry
**Result** A

P: O=C(Nc1ccc(-c2nc(N3CCOCC3)c3nnn(C4CC4)c3n2)cc1)Nc1cccnc1
Q: Cn1nnc2c(N3CCOCC3)nc(-c3ccc(NC(=O)Nc4cccs4)cc3)nc21
**Query** Could you please tell me which of these two has the higher IC50: P or Q ? // caller expects the label of the chosen entry
**Result** Q

---

assay: Drug level in human MDA-MB-361 cells implanted mouse tumor at 50 mg/kg, iv after 8 hrs; assay type: ADME, organism-based, Neoplasm; parameters: dose 50 mg/kg, route intravenous; conditions: read-out: Drug uptake
Measurement Name: concentration at 8 h (ng/mL)
Note: unit ng/mL is implicit; provide only the numeric part.

Lab note: CCn1nnc2c(N3CCOCC3)nc(-c3ccc(NC(=O)Nc4ccc(C(=O)N5CCN(C)CC5)cc4)cc3)nc21 gave concentration at 8 h of 2220
